Molecular target: CDK2/CyclinE1 (Homo sapiens, UniProt P24941)
Construct: purchased SignalChem C29-18G
Test: Assay for inhibition of CDK2/CyclinE1 (Caliper microfluidic kinase assay)
Format: biochemical
Conditions: CDK2/CyclinE1, 100 μM ATP; read-out: CDK2 IC50
pIC50: −log10 of the molar value.
endpoint name: pIC50

So what's the measured pIC50 for this one? `CC(C)c1cnn2ccc(-c3ccnc(Nc4ccc(N5CCOCC5=O)cn4)n3)cc12`
> 8.00

So what's the measured pIC50 for this one? CC(C)c1cnn2ccc(-c3ccnc(Nc4ccc(N5CC(N(C)C)CC5=O)cn4)n3)cc12 (stereo not shown) [Synthetic Example 39]
7.00 to 8.00

So what's the measured pIC50 for this one? CNC1CCCN(c2ccc(Nc3ncc(F)c(N4CCc5ncn(C(C)C)c5C4)n3)cc2)C1=O (stereo not shown)
7.00 to 8.00

So what's the measured pIC50 for this one? CNC1CCCN(c2ccc(Nc3nccc(-c4ccn5ncc(C(C)C)c5c4)n3)cn2)C1=O (stereo not shown)
7.00 to 8.00
